Reference source: PubChem BioAssay (NCI)

test system: NCI/ADR-RES ovarian; assay: NCI-60 one-dose screen, 48 h; conditions: 10 µM unless noted
About 83,000 compounds went through this panel and 20% of them were active in at least one assay; those are over-represented in the sample as a whole. Calls of active or inactive are those of the source. The calls were made as follows: active = growth percent below 10; inactive = the rest.
Pick one: 1 = active, -1 = inactive

// known answers, use as guide
| Compound | Discrete label |
| --- | --- |
| O=C(Nc1cccc(Cn2c(=O)[nH]c3ccc(Oc4ncccn4)cc3c2=O)c1)c1ccc(Cl)cc1 | -1 |
| CCNc1nnc(COc2ccc(CNC(=O)CCCC/C=C/C(C)C)cc2OC)o1 | -1 |
| COc1ccccc1Nc1nnc(COc2ccc(CNC(=O)CCCC/C=C/C(C)C)cc2OC)o1 | -1 |
| CC(=O)Nc1nc(C)c(C(=O)N/N=C/N2CCCCC2)s1 | -1 |

input: Dear all, I need the recorded test outcome for CC(=O)Nc1ccc(C(=O)/C=C/c2ccc(N(C)C)cc2)cc1 , thank you.
output: -1

input: Dear all, I need the recorded test outcome for Cc1ccc(NC(=O)CCl)cc1Cl , thank you.
output: -1

input: Dear all, I need the recorded test outcome for CCOC(=O)C1CCCN1C(=O)C1(NC(C)=O)CCCC1 (configuration not stated) , thank you.
output: -1

input: Dear all, I need the recorded test outcome for CCCC[N+](C)(N)CCCC , thank you.
output: -1

input: Dear all, I need the recorded test outcome for COc1cc2c(c3c1c(=O)c1cccc(F)c1n3C)C=CC(C)(C)O2 , thank you.
output: -1

---

tested on: HCT-15 colon; assay: NCI-60 one-dose screen, 48 h; settings: 10 µM unless noted
Compounds without any hit were thinned out: in the full panel of roughly 83,000, 20% have a hit. The source made the active and inactive calls. The calls were made as follows: active = growth percent below 10; inactive = the rest.
Pick one: active, inactive

// known answers, use as guide
| Compound | Discrete label |
| --- | --- |
| O=CN/N=C/c1ccc(Cl)c([N+](=O)[O-])c1 | inactive |
| COc1cc(-c2nn(-c3ccc(NC(=O)Nc4cc(C(F)(F)F)cc(C(F)(F)F)c4)cc3)cc2-c2ccncc2)ccc1Cl | active |
| CCOC(=O)C1C(=O)C(=O)N(C(C)C)C1C(=O)OCC (stereo not given) | inactive |
| COc1ccc(C2C3(C#N)C(N)=NC(=C(C#N)C#N)C23C#N)cc1OC (stereo not given) | inactive |
| COc1ccc2c(N)ncc(C#Cc3cc(C(=O)Nc4ccc(CN5CCN(C)CC5)c(C(F)(F)F)c4)cnc3C)c2c1 | active |
| CN(CCC#N)c1ccc(/C=C(\C#N)c2cccc(C(F)(F)F)c2)cc1 | inactive |
| CC(C)(C)c1ccc([I+]c2ccc(C(C)(C)C)cc2)cc1 | inactive |
| COc1cccc(-c2cc(-c3cc4ccccc4oc3=O)nc(N)n2)c1 | inactive |
| CCOC(=O)CNS(=O)(=O)CC(=O)c1ccccc1 | inactive |

// switching to the query compound
input: Dear all, I need the recorded test outcome for COc1ccc2sc(-n3nc4nc5n(c(=O)c4c3N)-c3ccccc3Sc3ccccc3-5)nc2c1 , thank you.
output: inactive

---

tested on: SW-620 colon; assay: NCI-60 one-dose screen, 48 h; conditions: 10 µM unless noted
About 83,000 compounds went through this panel and 20% of them were active in at least one assay; those are over-represented in the sample as a whole. Calls of active or inactive are those of the source. Rule for the calls: active = growth percent below 10; inactive = the rest.
Pick one: Yes (active), No (inactive)

// known answers, use as guide
| Compound | Discrete label |
| --- | --- |
| O=S(=O)(O)c1ccc2c(c1)Sc1cc(S(=O)(=O)O)ccc1O2 | No |
| Cc1ccc(CC(=O)O)c(C)c1 | No |
| O=C(CN1C(=O)NC(c2ccccc2)(c2ccccc2)C1=O)c1ccc(N2CCCC2)cc1 | No |
| CCOc1nc(-c2ccccc2)cc2c(O)c(C(=O)N/N=C/c3ccccc3O)[nH]c(=O)c12 | No |
| O=C(NCCO)C(F)(F)F | No |

input: Dear all, I need the recorded test outcome for Clc1ccc(N/N=C(\c2ccccc2)c2ccccn2)nc1 , thank you.
output: No

input: Dear all, I need the recorded test outcome for Cc1ccc(S(=O)(=O)N/N=C2\CC3CCC2C3)cc1 (stereo unspecified) , thank you.
output: No

input: Dear all, I need the recorded test outcome for CSC1=Nc2c(c(C)c(-c3ccccc3)n2CCCCl)C2=NC(=O)CN12 , thank you.
output: No

---

tested on: SR leukemia; experiment: NCI-60 one-dose screen, 48 h; settings: 10 µM unless noted
Compounds without any hit were thinned out: in the full panel of roughly 83,000, 20% have a hit. Calls of active or inactive are those of the source. The calls were made as follows: active = growth percent below 10; inactive = the rest.
Pick one: active, inactive

| Compound | Discrete label |
| --- | --- |
| NNC(=S)N1N=C(c2cc3ccccc3o2)CC1c1c[nH]c2ccccc12 (stereo unspecified) | inactive |
| CCCCn1c(Cc2ccc(OC)cc2)nc2cc(OC)c(OC)cc2c1=O | active |
| COc1ccc2c(c1)/C(=C/c1c(-c3cc(OC)c(OC)c(OC)c3)nc3sccn13)C(=O)N2 | active |
| COC(=O)CC(=O)C(=O)OC | inactive |
| CCCCCCCCCCCCCCCCCCOP(=O)(O)O | inactive |

input: Dear all, I need the recorded test outcome for Nc1cc(N)c2nc(NCCc3ccc(Cl)c(Cl)c3)cnc2c1 , thank you.
output: active

input: Dear all, I need the recorded test outcome for C=C(C)C(C(=O)OCC)(C(=O)OCC)C(C)C , thank you.
output: inactive

input: Dear all, I need the recorded test outcome for Nc1nc2cc(O)ccc2n2cc3c(F)cccc3c12 , thank you.
output: inactive

input: Dear all, I need the recorded test outcome for CN(C)CCOC(=O)C(C)(C)C , thank you.
output: inactive

input: Dear all, I need the recorded test outcome for O=c1c(N=Nc2nccs2)c(-c2ccccc2)[nH]n1-c1nc(-c2ccccc2)cs1 , thank you.
output: inactive

input: Dear all, I need the recorded test outcome for c1ccc(-c2cn3ccnc3c(-c3ccc4ncn(C5CCCCC5)c4c3)n2)cc1 , thank you.
output: inactive

---

tested on: K-562 leukemia; test: NCI-60 one-dose screen, 48 h (100 = growth as untreated, 0 = no growth, -100 = all killed); settings: 10 µM unless noted
About 83,000 compounds went through this panel and 20% of them were active in at least one assay; those are over-represented in the sample as a whole.
Assay endpoint: growth (%)
Answers are plain numbers, in %.

Field: example entries. Status: answers known.
| Compound | Test system | Unit text | Meas value |
| --- | --- | --- | --- |
| Nc1ccc(N=Nc2ccccc2)c2cc(S(=O)(=O)O)ccc12 | K-562 leukemia | % | 104 |
| CC1CCCCC[N+]12CCCC2 (stereo not given) | K-562 leukemia | % | 107 |
| COc1cccc(-c2cc(-c3cc4ccccc4oc3=O)nc(N)n2)c1 | K-562 leukemia | % | 99 |
| CC(=O)OCC1O[C@@H](OC(C)=O)[C@@H](NC(=O)NS(=O)(=O)c2ccccc2)C(OC(C)=O)[C@@H]1OC(C)=O (stereo not given in full) | K-562 leukemia | % | 94.6 |
| CCNc1nnc(COc2ccc(CNC(=O)CCCC/C=C/C(C)C)cc2OC)o1 | K-562 leukemia | % | 91.6 |
| COc1cc2ncnc(-n3ncc4cc(NC(=O)Nc5ccccc5)ccc43)c2cc1OC | K-562 leukemia | % | 39.1 |

// each compound listed below needs its growth
1. COc1cccc2c1n([O-])c1cccc(OC)c1[n+]2=O
2. Cc1c(Cc2ccccc2)c(=O)oc2c(C)c(OCC(=O)n3nc(C#N)cc3N)ccc12
3. CC(=O)C(CO)C(=O)Nc1ccccc1 (stereo not given)
4. COC(=O)c1cc(Nc2ccc(O)c3c2C(=O)c2c([N+](=O)[O-])ccc(O)c2C3=O)cc(C(=O)OC)c1

output:
37.6
102
102
72.9

---

tested on: SF-295 CNS; assay: NCI-60 one-dose screen, 48 h; details: 10 µM unless noted
The panel holds about 83,000 compounds, 20% with a hit somewhere; the sample as a whole holds those more often. Active and inactive are the calls of the source. The calls were made as follows: active = growth percent below 10; inactive = the rest.
Pick one: yes (active), no (inactive)

// known answers, use as guide
| Compound | Discrete label |
| --- | --- |
| COc1ccccc1Cn1cc2c(c1)-c1oncc1CC2 | yes |
| CCOC(=O)C1=NN(c2ccccc2)C2=NC(=O)/C(=C\c3cn(-c4ccccc4)nc3-c3cc4ccccc4o3)C(=O)N12 | no |
| COc1ccc(/C=C2\CCCC3=C2N=C2SC=NN2C3c2ccc(OC)c(OC)c2)cc1OC (stereo not given) | no |
| CC(C)(C)OC(=O)N1C/C(=C\c2ccccc2)C(=O)/C(=C/c2ccccc2)C1 | no |

// switching to the query compound
input: Dear all, I need the recorded test outcome for O=c1[nH]c(=S)[nH]c(O)c1/C=C1\C=Nc2ccccc21 , thank you.
output: no
